Target: Thyrotropin receptor (Homo sapiens) (UniProt P16473)
Sequence (P16473 whole entry, looked up): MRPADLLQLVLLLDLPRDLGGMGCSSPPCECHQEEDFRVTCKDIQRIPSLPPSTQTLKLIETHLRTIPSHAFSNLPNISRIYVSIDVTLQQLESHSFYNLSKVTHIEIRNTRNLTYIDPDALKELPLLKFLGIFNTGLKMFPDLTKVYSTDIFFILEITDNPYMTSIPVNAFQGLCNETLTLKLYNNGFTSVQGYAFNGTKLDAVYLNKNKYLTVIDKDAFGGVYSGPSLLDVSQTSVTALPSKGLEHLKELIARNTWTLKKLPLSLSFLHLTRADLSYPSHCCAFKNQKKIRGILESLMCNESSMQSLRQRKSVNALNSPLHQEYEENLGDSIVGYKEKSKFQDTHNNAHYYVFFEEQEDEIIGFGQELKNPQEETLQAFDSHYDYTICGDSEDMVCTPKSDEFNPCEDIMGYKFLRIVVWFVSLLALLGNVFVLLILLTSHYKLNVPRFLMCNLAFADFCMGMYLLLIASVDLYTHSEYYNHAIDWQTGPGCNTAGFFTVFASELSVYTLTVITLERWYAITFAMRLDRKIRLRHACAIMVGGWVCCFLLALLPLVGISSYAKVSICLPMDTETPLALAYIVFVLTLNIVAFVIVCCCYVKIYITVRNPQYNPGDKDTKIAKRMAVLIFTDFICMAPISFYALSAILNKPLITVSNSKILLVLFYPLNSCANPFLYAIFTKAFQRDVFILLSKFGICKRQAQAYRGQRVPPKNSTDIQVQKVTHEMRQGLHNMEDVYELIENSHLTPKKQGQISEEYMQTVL
Assay: qHTS Assay for Agonists of the Thyroid Stimulating Hormone Receptor;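 also: the control signal comes from parental cells without the receptor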
Conditions: HEK293-CNG-TSHR cells (CNG channel as cAMP sensor), membrane potential dye, cAMP; series mostly up to 57.1 µM
The campaign covered roughly 73,000 compounds. About 350 (0.48%) were called active. Not shown: some 17% with an inconclusive outcome. Calls follow the shape of the dose curve; as a rule, active = well fitted activation curve with a large enough effect in the main read-out, with a control signal flat (not every such curve was filed as active); inconclusive = small, poorly fitted or top-dose-only effect, or a change in a side signal; inactive = no such curve, though single readings can be large or run the other way; reference of the percent scale not stated here. Shown is part of a subset that was picked to be rich in actives.
Mark one answer only. Choices: active, inactive

The examples below pair each entry with its known result.
• C[C@]12CC[C@H](O)C[C@@H]1CC[C@H]1[C@H]2CC[C@]2(C)C(=O)CC[C@@H]12 = inactive
• C/C(=C\C=C/[C@@H](C)C(=O)O)[C@H]1CN[C@H](C(=O)O)[C@@H]1CC(=O)O = inactive
• Clc1ccc([C@@H]2C[C@H]3CC[C@@H]2N3)cn1 = inactive
• C=CCN1C(=O)C2(C(C(=O)OCC)=C(N)Oc3c2c(=O)oc2ccccc32)c2ccccc21 (stereo unspecified) = active
• Clc1cccc(Cl)c1Cl = inactive

Now, please, on to the next molecule.
Could you please tell me the result logged for CN1[C@H]2CC(OC(=O)[C@@H](CO)c3ccccc3)C[C@H]1[C@H]1O[C@H]12 (stereo partly specified) in this assay?
inactive

Cited source: PubChem BioAssay AID926
